Test system: KM12 colon
Assay summary: NCI-60 one-dose screen, 48 h (100 = growth as untreated, 0 = no growth, -100 = all killed)
Test conditions: 10 µM unless noted
This is part of a sample that, as a whole, favours compounds with a hit. Of some 83,000 tested, about 20% had one in any assay.
Observable: growth (%)
Just the number please, in %, no unit attached.

Consider the compound "C=CC(=O)Nc1cccc(Oc2nc(Nc3ccc(N4CCN(C)CC4)cc3)nc3ccsc23)c1" and give its recorded growth.
-79.1

Consider the compound "CSc1nc2ncncc2[nH]1" and give its recorded growth.
116

Consider the compound "N#Cc1c(C(F)(F)F)cc(Nc2ccc3nc(NCCN4CCCC4)oc3c2)n2c1nc1ccccc12" and give its recorded growth.
73.9

Consider the compound "COc1cc2c(Nc3ccc(Br)cc3F)ncnc2cc1OCC1CCN(C)CC1" and give its recorded growth.
38.1

Consider the compound "CCN1CCN(Cc2ccc(Cc3ncc(F)c(-c4cc(F)c5nc(C)n(C(C)C)c5c4)n3)nc2)CC1" and give its recorded growth.
28

Consider the compound "CCCCCCCC(=O)SCC/C=C/[C@@H]1CC(=O)NCc2cccc(n2)C2=N[C@@](C)(CS2)C(=O)N[C@@H](C(C)C)C(=O)N1" and give its recorded growth.
24.9

Consider the compound COC(=O)CC[C@@H](C)[C@H]1CC[C@H]2C3CC[C@@H]4C[C@@H]5CC[C@]4(C)[C@@]3(O5)[C@H](Br)[C@@H](Br)[C@]12C (some centres undefined) and give its recorded growth.
99.8

Consider the compound "O=C(COc1cccc(/C=C2\Cc3ccc(Cl)cc3C2=O)c1)Nc1nccs1" and give its recorded growth.
77.2

Consider the compound "COc1cc2c(cc1OCCCN1Cc3ccc(OCCCCC(=O)N4CCC(CCN5CCCC5)CC4)cc3C1)N=C(N)C21CCCC1" and give its recorded growth.
78.5

---

Test system: SK-MEL-5 melanoma
Assay summary: NCI-60 one-dose screen, 48 h
Test conditions: 10 µM unless noted
The panel holds about 83,000 compounds, 20% with a hit somewhere; the sample as a whole holds those more often. Activity calls are given as the source filed them. How the source made its calls: active means growth percent below 10; inactive means the rest.
Just give me one of these, please: TRUE = active, FALSE = inactive

Identify the outcome logged in this assay for the molecule shown: "Cn1cc(-c2ncnc3ccc(-c4cnc(Cl)c(NS(C)(=O)=O)c4)cc23)c2ccccc21"
TRUE

Identify the outcome logged in this assay for the molecule shown: "CCc1cc2c(c3ccc(C(=O)CBr)cc13)CCCC2"
FALSE

Identify the outcome logged in this assay for the molecule shown: "COC(=O)[C@@H](C)CNS(=O)(=O)N(c1cc(C(F)(F)F)cc(C(F)(F)F)c1)C1CCN(Cc2ccc(F)cc2)CC1"
FALSE

Identify the outcome logged in this assay for the molecule shown: "CN1CCN(c2nc(NCCNc3ccnc4cc(Cl)ccc34)c3ccccc3n2)CC1"
TRUE

Identify the outcome logged in this assay for the molecule shown: CC(=O)c1cnc2ccc(-c3cc(Cl)c(O)c(Cl)c3)nc2c1NC1CCC(CN(C)C)CC1 (centres undefined)
TRUE

Identify the outcome logged in this assay for the molecule shown: "CO[C@H]1C[C@@H]2CC[C@@H](C)[C@@](O)(O2)C(=O)C(=O)N2CCCC[C@H]2C(=O)O[C@H]([C@H](C)C[C@@H]2CC[C@@H](OCCO)[C@H](OC)C2)CC(=O)[C@H](C)/C=C(\C)[C@@H](O)[C@H](OC)C(=O)[C@H](C)C[C@H](C)\C=C/C=C/C=C/1C"
FALSE

Identify the outcome logged in this assay for the molecule shown: "CCN1CCN(Cc2ccc(Cc3ncc(F)c(-c4cc(F)c5nc(C)n(C(C)C)c5c4)n3)nc2)CC1"
FALSE

Identify the outcome logged in this assay for the molecule shown: "O=C1NC(=O)/C(=C/c2ccc3nccc(-c4ccncc4)c3c2)S1"
TRUE

Identify the outcome logged in this assay for the molecule shown: "Cc1ccc(-[n+]2c3cc(N)c(C)cc3nc3cc(C)c(Nc4ccccc4)cc32)cc1"
TRUE

---

System: HOP-62 NSCLC
Assay summary: NCI-60 one-dose screen, 48 h (100 = growth as untreated, 0 = no growth, -100 = all killed)
Test conditions: 10 µM unless noted
Compounds without any hit were thinned out: in the full panel of roughly 83,000, 20% have a hit.
Give measured growth for each item. Keep answers brief.
Just the number please, in %, no unit attached.

Consider the compound "Cn1ncc(Cl)c1-c1cc(C(=O)N[C@H](CN)Cc2ccc(F)c(F)c2)oc1Cl" and give its recorded growth.
-49.4

Consider the compound "CCN1CCN(c2nc(C)cc(N(CCCNc3ccnc4cc(Cl)ccc34)Cc3ccc4c(c3)OCO4)n2)CC1" and give its recorded growth.
-42.1

Consider the compound "Clc1ccc(/C=C/c2cc(N3CCOCC3)c3cc(Cl)c(Cl)cc3n2)cc1" and give its recorded growth.
122

Consider the compound "C=C1C(=O)O[C@H]2[C@H]1CC/C(CNC(=O)c1cc3cc(OC)ccc3[nH]1)=C\CC[C@@]1(C)O[C@@H]21" and give its recorded growth.
46.9

Consider the compound "NC(=O)Nc1cc(-c2cccc(F)c2)sc1C(=O)N[C@H]1CCCNC1" and give its recorded growth.
-39.2

Consider the compound "N#Cc1c(C(F)(F)F)cc(Nc2ccc3nc(NCCN4CCCC4)oc3c2)n2c1nc1ccccc12" and give its recorded growth.
75

Consider the compound "CC[C@H](Nc1ncnc2nc[nH]c12)c1nc2cccc(F)c2c(=O)n1-c1ccccc1" and give its recorded growth.
75.6

Consider the compound "Cc1cc([C@@H](C)Nc2ccccc2C(=O)O)c2nc(N3CCOCC3)cc(=O)n2c1" and give its recorded growth.
37.5

Consider the compound "NS(=O)(=O)c1ccc(CCN2C(=O)/C(=C\c3ccc(Cl)cc3)C=C2c2ccc3ccccc3c2)cc1" and give its recorded growth.
72

---

Give measured growth for each item. Keep answers brief.
System: OVCAR-3 ovarian
Assay summary: NCI-60 one-dose screen, 48 h (100 = growth as untreated, 0 = no growth, -100 = all killed)
Test conditions: 10 µM unless noted
Protocol: Growth inhibition of the OVCAR-3 human tumor cell line is measured as a screen for anti-cancer activity. Cells are grown in 96 well plates and exposed to the test compound for 48 hours. Compounds are tested at a single concentration, which is 10^-5 M for most compounds. The reported endpoint is percent growth (GI% or GIPRCNT), where numbers from 0 - 100% represent growth inhibition, and numbers from -100% - 0 represent cell death. For example, a value of 40 represents 60% growth inhibition. […]
Compounds without any hit were thinned out: in the full panel of roughly 83,000, 20% have a hit.
Just the number please, in %, no unit attached.

Consider the compound "Cn1cc(-c2cnn3c(N)c(Br)c([C@@H]4CCCNC4)nc23)cn1" and give its recorded growth.
59.8

Consider the compound "Cn1c(=O)c(F)c(Nc2ccc(I)cc2F)c2c(=O)n(C[C@@H](O)CO)cnc21" and give its recorded growth.
86.9

Consider the compound "Cc1cc2c(-c3nc4ccccn4c3NC3CCCCC3)c(O)c(O)cc2c(O)c1-c1c(C)cc2c(-c3nc4ccccn4c3NC3CCCCC3)c(O)c(O)cc2c1O" and give its recorded growth.
32.4

Consider the compound "CCCCCCCC(=O)SCC/C=C/[C@@H]1CC(=O)NCc2cccc(n2)C2=N[C@@](C)(CS2)C(=O)N[C@@H](C(C)C)C(=O)N1" and give its recorded growth.
22

Consider the compound "O=C(Cc1ccc(-c2ccc(OCCN3CCOCC3)cc2)cn1)NCc1ccccc1" and give its recorded growth.
20.3

Consider the compound "COc1cc(F)c(F)c(Nc2ccc(I)cc2F)c1NS(=O)(=O)C1(C[C@H](O)CO)CC1" and give its recorded growth.
83.1

Consider the compound "CSc1nc2ncncc2[nH]1" and give its recorded growth.
109

Consider the compound "COc1cc(-c2nc(C(=O)NCC(=O)O)nn2-c2ccc(Cl)cc2)cc(OC)c1OC" and give its recorded growth.
107

Consider the compound "Cc1cc(Nc2cc(N3CCN(C)CC3)nc(Sc3ccc(NC(=O)C4CC4)cc3)n2)n[nH]1" and give its recorded growth.
61.5

---

Give measured growth for each item. Keep answers brief.
Test system: K-562 leukemia
Assay summary: NCI-60 one-dose screen, 48 h (100 = growth as untreated, 0 = no growth, -100 = all killed)
Test conditions: 10 µM unless noted
The panel holds about 83,000 compounds, 20% with a hit somewhere; the sample as a whole holds those more often.
Just the number please, in %, no unit attached.

// fetch growth for "COc1ccc(-c2ccc3ncc4c(c3c2)n(-c2ccc(N3CCNCC3)c(C(F)(F)F)c2)c(=O)n4C)cn1" ; system: K-562 leukemia
-48.2

// fetch growth for "C[C@@H](Oc1cc(C(=O)Nc2ccc(C(=O)N3CCN(C)CC3)cc2)nnc1N)c1c(Cl)ccc(F)c1Cl" ; system: K-562 leukemia
28.7

// fetch growth for "O=C(COc1ccc(/C=C2\Cc3ccc(Cl)cc3C2=O)cc1)Nc1nccs1" ; system: K-562 leukemia
121

// fetch growth for "CCOC(=O)C1=C(C)N=C2Sc3cccc(OC)c3N2[C@H]1c1ccccn1" ; system: K-562 leukemia
101

// fetch growth for "C=CC(=O)Nc1cccc(Oc2nc(Nc3ccc(N4CCN(C)CC4)cc3)nc3ccsc23)c1" ; system: K-562 leukemia
-25.6

// fetch growth for "[2H]C1([2H])[C@H](C)O[C@H](C)C([2H])([2H])N1c1ccc(NC(=O)c2cccc(-c3ccc(OC(F)(F)F)cc3)c2C)cn1" ; system: K-562 leukemia
38.2

// fetch growth for "Cc1cc(Oc2ccccc2)ccc1Nc1ncnc2ccc(-c3cnc(Cl)c(NS(C)(=O)=O)c3)cc12" ; system: K-562 leukemia
54.3

Data provenance is PubChem BioAssay (NCI).
